Tgt: T1, recombinant HHLA2-His (UniProt Q9UM44 23-344, limits assumed)
T1 construct: Analyte in the Biacore assay; also called HHLA2-His analyte; not shown: His tag
T1 sequence (looked up): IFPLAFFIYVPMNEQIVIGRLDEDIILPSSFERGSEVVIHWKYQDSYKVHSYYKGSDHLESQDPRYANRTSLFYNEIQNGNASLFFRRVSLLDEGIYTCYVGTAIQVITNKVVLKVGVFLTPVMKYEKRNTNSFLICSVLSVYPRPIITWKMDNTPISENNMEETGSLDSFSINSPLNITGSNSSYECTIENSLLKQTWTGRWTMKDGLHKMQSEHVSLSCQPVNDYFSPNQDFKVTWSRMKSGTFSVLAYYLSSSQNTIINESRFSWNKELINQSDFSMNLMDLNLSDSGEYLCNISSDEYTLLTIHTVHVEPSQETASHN
Experiment Summary: SPR (Biacore, Cytiva); antibody captured on CM5 chip, HHLA2-His as analyte; monovalent
Protocol: Monovalent affinity was determined by capturing each antibody on an CM5 chip, followed by various concentrations of the HHLA2-His analyte.
Observed Property: pKd
Formally, pKd is defined as -log10 of the concentration c, with c in mol/L.

Ab-65887 (antibody, human IgG1, kappa, V domains shown, tested as IgG) VH: QVQLVQSGAEVKKPGASVKVSCKASGYTFEQYAMHWVRQAPGQRLEWMGFIPAGTGNTKYSQKFQGRVTITRDTSASTAYMELSSLRSEDTAVYYCARDRGGYWYDSWDDWGQGTLVTVSS VL: DIQMTQSPSSLSASVGDRVTITCRASQSISSYLNWYQQKPGKAPKLLIYGASSLQSGVPSRFSGSGSGTDFTLTISSLQPEDFATYYCQQVVFTPPTFGGGTKVEIKR    7.78
Ab-65885 (antibody, human IgG1, kappa, V domains shown, tested as IgG) VH: QVQLVQSGAEVKKPGASVKVSCKASGYTFDSYKMHWVRQAPGQRLEWMGYIPAGTGNTKYSQKFQGRVTITRDTSASTAYMELSSLRSEDTAVYYCARDRGGYYYDSWDDWGQGTLVTVSS VL: DIQMTQSPSSLSASVGDRVTITCRASQSISSYLNWYQQKPGKAPKLLIYGASSLQSGVPSRFSGSGSGTDFTLTISSLQPEDFATYYCQQVAFTPPTFGGGTKVEIKR    8.24
Ab-65886 (antibody, human IgG1, kappa, V domains shown, tested as IgG) VH: QVQLVQSGAEVKKPGASVKVSCKASGYTFEKYAMHWVRQAPGQRLEWMGFIPAGTGNTKYSQKFQGRVTITRDTSASTAYMELSSLRSEDTAVYYCARDRGGYYYDSWDDWGQGTLVTVSS VL: DIQMTQSPSSLSASVGDRVTITCRASQSISSYLNWYQQKPGKAPKLLIYGASSLQSGVPSRFSGSGSGTDFTLTISSLQPEDFATYYCQQVAFTPPTFGGGTKVEIKR    7.95
Ab-65890 (antibody, human IgG1, V domains shown, tested as IgG) VH: QVQLVQSGAEVKKPGASVKVSCKASGYTFNSYRMHWVRQAPGQRLEWMGSIPAGTGNTVYSQKFQGRVTITRDTSASTAYMELSSLRSEDTAVYYCARDRGGYYYDSWDDWGQGTLVTVSS VL: DIQMTQSPSSLSASVGDRVTITCRASQSISSYLNWYQQKPGKAPKLLIYGASSLQSGVPSRFSGSGSGTDFTLTISSLQPEDFATYYCQQVPFEPPTFGGGTKVEIK    9.12

Kindly review the next binder as well.
Challenge: Recall and state the measured pKd for Ab-65889 (antibody, human IgG1, kappa, V domains shown, tested as IgG) VH: QVQLVQSGAEVKKPGASVKVSCKASGYTFASYKMHWVRQAPGQRLEWMGDIPAGTGNTHYSQKFQGRVTITRDTSASTAYMELSSLRSEDTAVYYCARDRGGYYYDSWDDWGQGTLVTVSS VL: DIQMTQSPSSLSASVGDRVTITCRASQSISSYLNWYQQKPGKAPKLLIYGASSLQSGVPSRFSGSGSGTDFTLTISSLQPEDFATYYCQQVPFEPPTFGGGTKVEIKR .
Response given: 9.05
